Biological target: UniProtKB O00519
Sequence (O00519 whole entry): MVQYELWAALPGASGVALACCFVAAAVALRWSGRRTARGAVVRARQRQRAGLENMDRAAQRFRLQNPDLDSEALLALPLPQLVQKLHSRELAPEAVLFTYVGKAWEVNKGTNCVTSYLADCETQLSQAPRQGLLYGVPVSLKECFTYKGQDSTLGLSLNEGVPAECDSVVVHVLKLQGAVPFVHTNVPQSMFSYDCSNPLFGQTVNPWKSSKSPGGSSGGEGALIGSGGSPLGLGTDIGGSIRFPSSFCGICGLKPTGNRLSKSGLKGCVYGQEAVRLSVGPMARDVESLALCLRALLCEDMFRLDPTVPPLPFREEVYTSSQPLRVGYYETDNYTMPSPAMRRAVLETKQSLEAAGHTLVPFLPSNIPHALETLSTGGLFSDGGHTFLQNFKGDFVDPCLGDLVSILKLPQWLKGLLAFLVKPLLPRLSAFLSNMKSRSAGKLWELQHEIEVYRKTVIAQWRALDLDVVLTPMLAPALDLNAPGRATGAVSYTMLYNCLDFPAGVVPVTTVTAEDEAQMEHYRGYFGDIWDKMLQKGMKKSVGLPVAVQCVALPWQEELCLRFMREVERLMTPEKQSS
Test: Inhibition of human FAAH preincubated for 10 mins
pIC50: −log10 of the molar value.
Classify as follows. Reported pIC50 greater than or equal to 6: Y. Reported pIC50 below: N.

1. O=C(Nc1nccnn1)N1CCN(c2nc(-c3ccccc3)ns2)CC1; N
2. Cc1cnc(NC(=O)N2CCN(c3nc(-c4ccccc4)ns3)CC2)s1; N
3. N#Cc1cncnc1NC(=O)N1CCN(c2nc(-c3ccccc3)ns2)CC1; Y
4. O=C(Nc1cccc2nsnc12)N1CCN(c2nc(-c3ccccc3)ns2)CC1; Y
5. O=C(Nc1nnn[nH]1)N1CCN(c2nc(-c3ccccc3)ns2)CC1; Y

----------
Test: Tmax in rat brain at 20 mg/kg, ip
Format: ADME, organism-based
Set-up: dose 20 mg/kg, route intraperitoneal
experimental_endpoint: Tmax (h)

1) O=C(Nc1ccccc1)N1CCN(c2nc(-c3ccccc3)ns2)CC1; 2

----------
Test: Half life in rat plasma at 10 mg/kg, po
Format: ADME, organism-based
Design: dose 10 mg/kg, route oral
experimental_endpoint: half-life (h)

1. O=C(Nc1ccccc1)N1CCN(c2nc(-c3ccccc3)ns2)CC1; 4.4

----------
Biological target: Fatty-acid amide hydrolase 1 (Homo sapiens, UniProt O00519)
Sequence (O00519 whole entry): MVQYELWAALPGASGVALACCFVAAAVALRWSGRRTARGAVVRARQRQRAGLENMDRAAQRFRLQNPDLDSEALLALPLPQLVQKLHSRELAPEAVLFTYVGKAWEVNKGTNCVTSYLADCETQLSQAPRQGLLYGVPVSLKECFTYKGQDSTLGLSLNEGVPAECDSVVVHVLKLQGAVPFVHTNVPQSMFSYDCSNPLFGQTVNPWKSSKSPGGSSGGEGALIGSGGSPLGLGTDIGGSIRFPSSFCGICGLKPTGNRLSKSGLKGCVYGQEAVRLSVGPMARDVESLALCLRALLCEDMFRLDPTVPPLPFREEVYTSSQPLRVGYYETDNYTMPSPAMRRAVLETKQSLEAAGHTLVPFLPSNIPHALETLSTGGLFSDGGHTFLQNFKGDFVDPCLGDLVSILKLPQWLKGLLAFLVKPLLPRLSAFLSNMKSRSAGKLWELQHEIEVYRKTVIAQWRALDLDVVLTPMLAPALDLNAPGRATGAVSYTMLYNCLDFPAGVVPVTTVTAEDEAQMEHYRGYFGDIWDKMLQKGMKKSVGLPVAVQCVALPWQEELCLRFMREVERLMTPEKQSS
Experiment: Inhibition of human FAAH preincubated for 10 mins
With a cut-off of 50 nM, any IC50 strictly below it is called y; any IC50 meeting it or above is called n.

1) O=C(Nc1ncccn1)N1CCN(c2nc(-c3ccccc3)ns2)CC1; n
2) O=C(Nc1cc(-c2ccccc2)n[nH]1)N1CCN(c2nc(-c3ccccc3)ns2)CC1; n
3) O=C(Nc1cnccn1)N1CCN(c2nc(-c3ccccc3)ns2)CC1; y
4) COc1cc(NC(=O)N2CCN(c3nc(-c4ccccc4)ns3)CC2)ncn1; y
5) O=C(Nc1ccncn1)N1CCN(c2nc(-c3ccccc3)ns2)CC1; y
6) O=C(Nc1nc(-c2ccccc2)cs1)N1CCN(c2nc(-c3ccccc3)ns2)CC1; n
7) O=C(Nc1ccon1)N1CCN(c2nc(-c3ccccc3)ns2)CC1; n
8) O=C(Nc1ccncc1)N1CCN(c2nc(-c3ccccc3)ns2)CC1; y
